Molecular target: T1, recombinant human HER2 extracellular domain protein (human, UniProt P04626 23-652)
T1 construct: range 23-652; Range is printed for the immunogen/panning protein; also called ErbB2; recombinant HER2 protein
Assay: BLI, Protein A capture
API: label(entry) gives MET if the entry's kon is strictly smaller than 100000 M⁻¹ s⁻¹; on equality or larger values it gives NOT MET.

binder	assigned category
2126-Hu-H38 (antibody, IgG1, V domains shown, IgG1/Cκ) VH: QVQLVQSGSELKKPGASVKVSCKASGYTFTDYSMHWVRQAPGQGLEWMGWINTETGEPTYADDFKGRFVISLDTSVSTAYLQISSLKAEDTAVYFCVRVGRYDYAMDYWGQGTTVTVSS VL: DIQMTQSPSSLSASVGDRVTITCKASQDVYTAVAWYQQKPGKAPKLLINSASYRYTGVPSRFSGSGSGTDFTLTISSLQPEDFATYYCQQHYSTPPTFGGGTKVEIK	NOT MET
2126-Hu-H39 (antibody, IgG1, V domains shown, IgG1/Cκ) VH: QVQLVQSGSELKKPGASVKVSCKASGYTFTDYSMHWVRQAPGQGLEWMGWINTETGEPTYADDFKGRFVFSVDTSVSTAYLQISSLKAEDTAVYFCVRVGRYDYAMDYWGQGTTVTVSS VL: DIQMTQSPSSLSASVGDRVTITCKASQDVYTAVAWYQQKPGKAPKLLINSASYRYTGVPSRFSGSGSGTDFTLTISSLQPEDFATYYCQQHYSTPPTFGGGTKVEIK	NOT MET

I wonder whether 2126-Hu-L08 (antibody, IgG1, V domains shown, IgG1/Cκ) VH: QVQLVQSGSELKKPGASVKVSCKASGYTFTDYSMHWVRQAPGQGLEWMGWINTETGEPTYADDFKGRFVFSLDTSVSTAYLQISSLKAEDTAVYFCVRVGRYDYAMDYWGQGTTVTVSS VL: DIQMTQSPSSLSASVGDRVTITCKASQDVYTAVAWYQQKPGKAPKLLINSASERYTGVPSRFSGSGSGTDFTLTISSLQPEDFATYYCQQHYSTPPTFGGGTKVEIK has kon below 100000 M⁻¹ s⁻¹. Can you tell?
MET

Please state whether kon is below 100000 M⁻¹ s⁻¹ for 2126-Hu-L09 (antibody, IgG1, V domains shown, IgG1/Cκ) VH: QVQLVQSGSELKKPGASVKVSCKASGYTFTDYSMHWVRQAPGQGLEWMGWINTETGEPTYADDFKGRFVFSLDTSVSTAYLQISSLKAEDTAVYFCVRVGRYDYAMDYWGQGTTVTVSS VL: DIQMTQSPSSLSASVGDRVTITCKASQDVYTAVAWYQQKPGKAPKLLINSASKRYTGVPSRFSGSGSGTDFTLTISSLQPEDFATYYCQQHYSTPPTFGGGTKVEIK
MET

Given the entry 2126-Hu-H44 (antibody, IgG1, V domains shown, IgG1/Cκ) VH: QVQLVQSGSELKKPGASVKVSCKASGYTFTDYSMHWVRQAPGQGLEWMGWINTETGEPTYADDFKGRFVFSLDTSVSTAYLQLSSLKAEDTAVYFCVRVGRYDYAMDYWGQGTTVTVSS VL: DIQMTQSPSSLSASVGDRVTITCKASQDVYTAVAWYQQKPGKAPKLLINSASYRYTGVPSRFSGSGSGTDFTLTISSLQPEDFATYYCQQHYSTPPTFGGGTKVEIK , would its reported kon be below 100000 M⁻¹ s⁻¹?
NOT MET

Is kon of 2126-Hu-H59 (antibody, IgG1, V domains shown, IgG1/Cκ) VH: QVQLVQSGSELKKPGASVKVSCKASGYTFTDYSMHWVRQAPGQGLEWMGWINTETGEPTYADDFKGRFVFSLDTSVSTAYLQISSLKAEDTAVYFCVRVGRYSYAMDYWGQGTTVTVSS VL: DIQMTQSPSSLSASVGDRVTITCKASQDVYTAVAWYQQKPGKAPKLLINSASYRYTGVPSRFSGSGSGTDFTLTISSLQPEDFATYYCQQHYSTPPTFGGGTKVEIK strictly below 100000 M⁻¹ s⁻¹?
NOT MET

Say whether its kon is strictly beneath 100000 M⁻¹ s⁻¹. Entry: 2126-Hu-L10 (antibody, IgG1, V domains shown, IgG1/Cκ) VH: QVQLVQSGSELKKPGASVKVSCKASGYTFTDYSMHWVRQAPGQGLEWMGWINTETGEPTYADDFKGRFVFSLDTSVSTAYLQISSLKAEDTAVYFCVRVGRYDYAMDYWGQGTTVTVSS VL: DIQMTQSPSSLSASVGDRVTITCKASQDVYTAVAWYQQKPGKAPKLLINSASNRYTGVPSRFSGSGSGTDFTLTISSLQPEDFATYYCQQHYSTPPTFGGGTKVEIK
NOT MET

# TODO verify kon < 100000 M⁻¹ s⁻¹ strictly for this binder: 2126-Hu-L04 (antibody, IgG1, V domains shown, IgG1/Cκ) VH: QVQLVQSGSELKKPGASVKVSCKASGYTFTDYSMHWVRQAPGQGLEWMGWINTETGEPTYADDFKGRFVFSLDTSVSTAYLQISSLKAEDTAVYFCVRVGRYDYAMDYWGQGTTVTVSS VL: DIQMTQSPSSLSASVGDRVTITCKASQDVYTYVAWYQQKPGKAPKLLINSASYRYTGVPSRFSGSGSGTDFTLTISSLQPEDFATYYCQQHYSTPPTFGGGTKVEIK
MET
